Known half-life of a selection of compounds
Test Protocol: Hydrolytic study using rat liver microsomes
Assay type: in vitro ADME
Measurement Parameters: male, Wistar, 1 mg/mL microsomal fraction, absence of cofactor, 37 °C, read-out: Hydrolysis t1/2 Rat liver microsomes
Value Type: half-life (min)

{"Compound": "CCOC(=O)c1ccc(Br)cc1 [Compound 12, ethyl 4-bromobenzoate]", "Value Units": "min", "Quantitative Readout": 10}
{"Compound": "O=C(Oc1ccccc1)c1ccccc1 [Compound 5, phenyl benzoate]", "Value Units": "min", "Quantitative Readout": 10}
{"Compound": "COC(=O)c1ccccc1 [Compound 1, methyl benzoate]", "Value Units": "min", "Quantitative Readout": 15}
{"Compound": "CCOC(=O)c1cccc(Br)c1 [Compound 11, ethyl 3-bromobenzoate]", "Value Units": "min", "Quantitative Readout": 12}
{"Compound": "O=C(OCc1ccccc1)c1ccccc1 [Compound 6, benzyl benzoate]", "Value Units": "min", "Quantitative Readout": 13}
{"Compound": "CCOC(=O)c1ccccc1 [Compound 2, ethyl benzoate]", "Value Units": "min", "Quantitative Readout": 12}

====

Test Protocol: Rat plasma hydrolytic study
Measurement Parameters: male, Wistar, rat, rat plasma (80% in phosphate buffer), pH 7.4
Value Type: log10 of half-life at 500 μM (log10 of the value in min)

{"Molecule": "CCOC(=O)c1ncn2c1CN(C)C(=O)c1cc(F)ccc1-2 [Compound 15, flumazenil, reference compound]", "log10 of half-life at 500 μM": 1.95}
{"Molecule": "O=C(Oc1ccccc1)c1ccccc1 [Compound 5, phenyl benzoate]", "log10 of half-life at 500 μM": 0.85}
{"Molecule": "CCOC(=O)c1cccc(Br)c1 [Compound 11, ethyl 3-bromobenzoate]", "log10 of half-life at 500 μM": 1.04}
{"Molecule": "CCCOC(=O)c1ccccc1 [Compound 3, n-propyl benzoate]", "log10 of half-life at 500 μM": 1.00}
{"Molecule": "COC(=O)c1ncn2c1CN(C)C(=O)c1cc(F)ccc1-2", "log10 of half-life at 500 μM": 2.38}
{"Molecule": "O=C(OCc1ccccc1)c1ccccc1 [Compound 6, benzyl benzoate]", "log10 of half-life at 500 μM": 1.08}
{"Molecule": "CC(=O)Oc1ccccc1", "log10 of half-life at 500 μM": 1.28}
{"Molecule": "CCOC(=O)c1ccccc1 [Compound 2, ethyl benzoate]", "log10 of half-life at 500 μM": 1.23}
{"Molecule": "CCOC(=O)c1ccccc1Br [Compound 10, ethyl 2-bromobenzoate]", "log10 of half-life at 500 μM": 1.00}
{"Molecule": "COC(=O)c1ccc(N)cc1 [Compound 14, methyl 4-aminobenzoate]", "log10 of half-life at 500 μM": 1.43}

====

Test Protocol: Base-catalysed (alkaline) hydrolysis with LiOH in THF:H2O
Measurement Parameters: LiOH in tetrahydrofuran/water (6:4), Hydrolysis t1/2 Alkaline, LiOH, THF:H2O, 37 °C
Known half-life at 2.5 g/L of a selection of molecules
Value Type: half-life at 2.5 g/L (min)

{"Molecule": "CCOC(=O)c1ccccc1 [Compound 2, ethyl benzoate]", "Quantitative Readout": 15}
{"Molecule": "CC(=O)Oc1ccccc1", "Quantitative Readout": 58}
{"Molecule": "COC(=O)Cc1ccccc1 [Compound 8, methyl 2-phenylacetate]", "Quantitative Readout": 39}

These entries and their values trace back to paper PMC8856110.
